# Percent Effect per record follows
test system: Wolbachia pipientis; experiment: Anti-Wolbachia Cell-Based Screen; format: functional; set-up: scale not given: in the data most compounds retested in dose-response had high values; conditions: 5 µM
Hit rate of the full screen: of about 48,000 compounds, about 13,000 (27%) showed an effect of 50% or more. The list shows a part of the results.
Lab book: enter the figure in %, no units written.

>>> observed("Cn1ncc2c1CCCC2NCc1ccc(OCc2cccnc2)cc1 (centres undefined)")
102.9

Next item in the queue.
GET /value?item= CCOc1cccc(COC(=O)c2ccc(F)cn2)n1 &field=Percent Effect returns -9.322

====

# Percent Effect per record follows
tested on: Wolbachia pipientis; assay: Anti-Wolbachia Cell-Based Screen; format: functional; parameters: scale not given: in the data most compounds retested in dose-response had high values; conditions: 5 µM
The whole screen tested about 48,000 compounds, of which about 13,000 (27%) showed an effect of 50% or more. Some of the results follow.

>>> observed("CS(=O)(=O)N1CCC(CNc2cc(Cl)ccc2C#N)CC1")
"125.4%"

GET /value?item= CCOc1ncccc1C(=O)N1CCCC(n2nc(C)nc2C)C1 (configuration not stated) &field=Percent Effect returns -3.094%

GET /value?item= CCOc1cc(CNC(=O)C(C#N)c2nc(C)cs2)ccc1OC(F)F (configuration not stated) &field=Percent Effect returns -3.55%

GET /value?item= COc1cc(CN2CCCC2)ccc1Oc1ccc2c(c1)CC(CN)O2 (configuration not stated) &field=Percent Effect returns -3.423%

GET /value?item= O=S(=O)(c1cccs1)N1CCN2C[C@H](OCC3CC3)C[C@H]2C1 &field=Percent Effect returns 12.99%

====

tested on: Wolbachia pipientis; assay: Anti-Wolbachia Cell-Based Screen; type: functional; set-up: scale not given: in the data most compounds retested in dose-response had high values; settings: 5 µM
The campaign covered roughly 48,000 compounds. About 13,000 (27%) showed an effect of 50% or more. The list shows a part of the results.
PROPERTY MEASURED: Percent Effect (%)
Lab book: enter the figure in %, no units written.

Some molecules with recorded Percent Effect:
>>> observed("CC(C)NC(=O)c1nnn(-c2cccc(C(F)(F)F)c2)c1N")
5.987
>>> observed("CCCC(=O)N1CCCN(C(=O)Nc2ccc(C)s2)CC1")
4.138

Next item in the queue.
GET /value?item= O=C(Nc1ccn(Cc2cccc3cccnc23)n1)C1COCCO1 (stereo not drawn) &field=Percent Effect returns -13.67

====

system: Wolbachia pipientis; assay: Anti-Wolbachia Cell-Based Screen; type: functional; parameters: scale not given: in the data most compounds retested in dose-response had high values; details: 5 µM
Screen size: about 48,000 compounds; about 13,000 (27%) showed an effect of 50% or more. Some of the results follow.
PROPERTY MEASURED: Percent Effect (%)
Lab book: enter the figure in %, no units written.

>>> observed("CCN(Cc1cc(F)c(OC)c(Cl)c1)Cc1nc(COC)no1")
-30.92
>>> observed("CC(Nc1cccc(CN2CCOC2=O)c1)C(=O)N1CCNC1=O (centres undefined)")
-9.338
>>> observed("CCN(C)c1ncnc2c1CCN(C(=O)c1cccn1C)CC2")
-8.14
>>> observed("Cc1cc2c(=O)n3c(nc2s1)CCN(C(=O)c1scnc1C)CC3")
-10.56
>>> observed("COc1cccc(COC(C)C(=O)NC2CCN(CC(N)=O)CC2)c1 (centres undefined)")
-5.378
>>> observed("CC(C)c1noc(CNc2ccc(OC(F)F)cc2OC(F)F)n1")
-33.16
>>> observed("Cc1cccc2ncnc(N3CCOC(C)C3)c12 (centres undefined)")
0.1008
>>> observed("COc1cccc(-c2noc(C3CCN(Cc4ccncc4)C3)n2)c1 (centres undefined)")
126.2

GET /value?item= Cc1nc(N2CCCCC2)ncc1C(=O)N1CC(C)(C)[C@@](C)(O)C1 &field=Percent Effect returns 13.78

====

# Percent Effect per record follows
test system: Wolbachia pipientis; assay: Anti-Wolbachia Cell-Based Screen; format: functional; parameters: scale not given: in the data most compounds retested in dose-response had high values; settings: 5 µM
The campaign covered roughly 48,000 compounds. About 13,000 (27%) showed an effect of 50% or more. The list shows a part of the results.
Lab book: enter the figure in %, no units written.

>>> observed("COc1ccc2c(c1)CCCN2Cc1nc2c(cnn2C)c(=O)[nH]1")
-6.912
>>> observed("CCc1ccc2c(c1)C(CCNC(=O)CCc1ccsc1)C(=O)N2 (configuration not stated)")
24.64
>>> observed("CCN1Cc2cc(OC)ccc2N(CC(C)(C)O)CCC1=O")
102.5
>>> observed("CC(C)C(=O)NC1COC2(CCN(C(=O)c3ccc[nH]3)CC2)C1 (configuration not stated)")
3.438
>>> observed("CSCCC(C)NC(=O)N1CCSC(C)(C)C1 (configuration not stated)")
17.63
>>> observed("O=C(Cc1ccccc1)NCc1ccc(-c2ccccc2C(=O)O)cn1")
101.1

I looked up CCN1CCN(C[C@@H]2CN(Cc3cnc(C(C)C)nc3)C[C@@H]2CO)CC1 and its Percent Effect for Wolbachia pipientis was -21.09

====

# Percent Effect per record follows
test system: Wolbachia pipientis; assay: Anti-Wolbachia Cell-Based Screen; type: functional; set-up: scale not given: in the data most compounds retested in dose-response had high values; settings: 5 µM
The campaign covered roughly 48,000 compounds. About 13,000 (27%) showed an effect of 50% or more. This is one part of the list.
Lab book: enter the figure in %, no units written.

>>> observed("CN(C)CCO[C@@H]1CC[C@H]2[C@H]1OCCN2C(=O)c1ccncc1")
113.2

GET /value?item= O=C(O)C(F)(F)F.O=C1CC2(CCN(CC3CC3)C2)CN1c1ccc2c(c1)OCO2 (centres undefined) &field=Percent Effect returns -8.293

GET /value?item= c1ccc2c(c1)CCN(c1ncnc3sc4c(c13)CCNC4)C2 &field=Percent Effect returns -22.34

GET /value?item= CCN(CC)C(=O)[C@@H]1C[C@@H](NC(=O)c2ccoc2)CN1C &field=Percent Effect returns 5.596

====

tested on: Wolbachia pipientis; test: Anti-Wolbachia Cell-Based Screen; format: functional; design: scale not given: in the data most compounds retested in dose-response had high values; settings: 5 µM
Hit rate of the full screen: of about 48,000 compounds, about 13,000 (27%) showed an effect of 50% or more. The list shows a part of the results.
Outcome label depends on Percent Effect relative to 70%: at/above gives satisfied, below gives not satisfied.

Some solved entries appear below for comparison.
>>> label("O=C(O)C(F)(F)F.c1coc(CN2CCO[C@H]3[C@H](OCC4CC4)CC[C@@H]32)c1")
"satisfied"
>>> label("O=C1c2cc(Br)cc(Br)c2OCC1(CN1CCCC1)CN1CCCC1")
"satisfied"
>>> label("CNC(=O)[C@@H](C1CCCCC1)N1CCC[C@H]1C(=O)NC1CC1")
"not satisfied"

Query :: For this molecule, is measured Percent Effect 70% or higher? CCOCC(O)CN1CCN(C(=O)c2ccc(OC)cc2)CC1 (stereo not given)
Result :: satisfied

Query :: For this molecule, is measured Percent Effect 70% or higher? O=C(Cc1cccnc1)N1CCC2(CC1)CCN(C1CCOCC1)C2.O=C(O)C(F)(F)F.O=C(O)C(F)(F)F
Result :: not satisfied

Query :: For this molecule, is measured Percent Effect 70% or higher? CC(C)(C)c1coc([C@@H]2COCCN2Cc2ccccn2)n1
Result :: not satisfied

Query :: For this molecule, is measured Percent Effect 70% or higher? CCc1nc(CNC2CCCCNC2=O)cs1 (stereo not given)
Result :: not satisfied

Query :: For this molecule, is measured Percent Effect 70% or higher? COc1ccc(CNCc2ccc(N3CCCCC3)nc2)cc1OC
Result :: not satisfied

Query :: For this molecule, is measured Percent Effect 70% or higher? Cc1nsc(NC(=O)N2CCC(C(C)(C)O)CC2)n1
Result :: not satisfied

Query :: For this molecule, is measured Percent Effect 70% or higher? CCN1CC(O)CN(C(=O)c2ccc(SC)cc2)CC1=O (stereo not given)
Result :: satisfied

Query :: For this molecule, is measured Percent Effect 70% or higher? CSc1ccc(C(=O)N2CC(=O)N(CC(C)(C)C)CC(O)C2)cc1 (stereo not given)
Result :: satisfied

Query :: For this molecule, is measured Percent Effect 70% or higher? COc1cccc2cc(CNCc3ccc(N4CCCC4)nc3)oc12
Result :: satisfied

Query :: For this molecule, is measured Percent Effect 70% or higher? CC(CNC(=O)c1cnc[nH]1)Oc1ccccc1Br (stereo not given)
Result :: satisfied

Query :: For this molecule, is measured Percent Effect 70% or higher? CC(CNC(=O)c1cnc[nH]1)Oc1ccc(Cl)cc1 (stereo not given)
Result :: satisfied

Query :: For this molecule, is measured Percent Effect 70% or higher? O=C(O)C(F)(F)F.c1coc(CN2CCO[C@H]3[C@@H](OCC4CC4)CC[C@@H]32)c1
Result :: satisfied
